# System: Leukemia L-1210 cells
# experimentSummary: Test 1: antitumor activity against leukemia induced in CDF1 mice by Leukemia L-1210 cells (life-span increase)
# Assay type: in vivo
# runParameters: Dose 0.6 mg/kg/day, intraperitoneally once per day for 9 consecutive days, observation 60 days
measuredQuantity: % Increase in life-span (T/C, %)

>  <compound>
C[C@@H]1O[C@@H](O[C@H]2C[C@](O)(C(=O)CO)Cc3c(O)c4c(c(O)c32)C(=O)c2ccccc2C4=O)[C@H](F)[C@H](O)[C@H]1O

>  <qualifierSymbol>
>

>  <recordedMeasurement>
686

$$$$
>  <compound>
COc1cccc2c1C(=O)c1c(O)c3c(c(O)c1C2=O)C[C@@](O)(C(=O)CO)C[C@@H]3O[C@@H]1O[C@@H](C)[C@@H](O)[C@@H](O)[C@H]1F [reference compound]

>  <qualifierSymbol>
=

>  <recordedMeasurement>
185

$$$$
>  <compound>
COc1cccc2c1C(=O)c1c(O)c3c(c(O)c1C2=O)C[C@@](O)(C(=O)COC(=O)CCCCCC(=O)O)C[C@@H]3O[C@@H]1O[C@@H](C)[C@H](O)[C@@H](O)[C@H]1F

>  <qualifierSymbol>
>

>  <recordedMeasurement>
329

$$$$
>  <compound>
COc1cccc2c1C(=O)c1c(O)c3c(c(O)c1C2=O)C[C@@](O)(C(=O)CO)C[C@@H]3O[C@H]1C[C@H](N)[C@H](O)[C@H](C)O1 [Adriamycin, reference compound]

>  <qualifierSymbol>
=

>  <recordedMeasurement>
142

$$$$
>  <compound>
C[C@@H]1O[C@@H](O[C@H]2C[C@](O)(C(=O)COC(=O)CCCCCC(=O)O)Cc3c(O)c4c(c(O)c32)C(=O)c2ccccc2C4=O)[C@H](F)[C@H](O)[C@H]1O

>  <qualifierSymbol>
=

>  <recordedMeasurement>
175

$$$$
>  <compound>
COc1cccc2c1C(=O)c1c(O)c3c(c(O)c1C2=O)C[C@@](O)(C(C)=O)C[C@@H]3O[C@@H]1O[C@@H](C)[C@@H](O)[C@@H](O)[C@H]1F [reference compound]

>  <qualifierSymbol>
=

>  <recordedMeasurement>
118

$$$$
>  <compound>
CC(=O)[C@]1(O)Cc2c(O)c3c(c(O)c2[C@@H](O[C@@H]2O[C@@H](C)[C@H](O)[C@@H](O)[C@H]2F)C1)C(=O)c1ccccc1C3=O

>  <qualifierSymbol>
=

>  <recordedMeasurement>
309

$$$$
>  <compound>
COc1cccc2c1C(=O)c1c(O)c3c(c(O)c1C2=O)C[C@@](O)(C(=O)CO)C[C@@H]3O[C@@H]1O[C@@H](C)[C@H](O)[C@@H](O)[C@H]1F

>  <qualifierSymbol>
>

>  <recordedMeasurement>
363

$$$$
>  <compound>
COc1cccc2c1C(=O)c1c(O)c3c(c(O)c1C2=O)C[C@@](O)(C(C)=O)C[C@@H]3O[C@H]1C[C@H](N)[C@H](O)[C@H](C)O1 [Daunomycin, reference compound]

>  <qualifierSymbol>
=

>  <recordedMeasurement>
166

$$$$
>  <compound>
COc1cccc2c1C(=O)c1c(O)c3c(c(O)c1C2=O)C[C@@](O)(C(C)=O)C[C@@H]3O[C@@H]1O[C@@H](C)[C@H](O)[C@@H](O)[C@H]1F

>  <qualifierSymbol>
=

>  <recordedMeasurement>
189

$$$$

---

# System: Leukemia L-1210 cells
# experimentSummary: Test 1: antitumor activity against leukemia induced in CDF1 mice by Leukemia L-1210 cells (life-span increase)
# Assay type: in vivo
# runParameters: Dose 0.3 mg/kg/day, intraperitoneally once per day for 9 consecutive days, observation 60 days

>  <compound>
COc1cccc2c1C(=O)c1c(O)c3c(c(O)c1C2=O)C[C@@](O)(C(=O)CO)C[C@@H]3O[C@H]1C[C@H](N)[C@H](O)[C@H](C)O1 [Adriamycin, reference compound]

>  <qualifierSymbol>
=

>  <% Increase in life-span (T/C, %)>
136

$$$$
>  <compound>
C[C@@H]1O[C@@H](O[C@H]2C[C@](O)(C(=O)COC(=O)CCCCCC(=O)O)Cc3c(O)c4c(c(O)c32)C(=O)c2ccccc2C4=O)[C@H](F)[C@H](O)[C@H]1O [Example 11]

>  <qualifierSymbol>
>

>  <% Increase in life-span (T/C, %)>
363

$$$$
>  <compound>
C[C@@H]1O[C@@H](O[C@H]2C[C@](O)(C(=O)CO)Cc3c(O)c4c(c(O)c32)C(=O)c2ccccc2C4=O)[C@H](F)[C@H](O)[C@H]1O [Example 4]

>  <qualifierSymbol>
>

>  <% Increase in life-span (T/C, %)>
686

$$$$
>  <compound>
CC(=O)[C@]1(O)Cc2c(O)c3c(c(O)c2[C@@H](O[C@@H]2O[C@@H](C)[C@H](O)[C@@H](O)[C@H]2F)C1)C(=O)c1ccccc1C3=O [Example 2]

>  <qualifierSymbol>
=

>  <% Increase in life-span (T/C, %)>
163

$$$$
>  <compound>
COc1cccc2c1C(=O)c1c(O)c3c(c(O)c1C2=O)C[C@@](O)(C(=O)COC(=O)CCCCCC(=O)O)C[C@@H]3O[C@@H]1O[C@@H](C)[C@H](O)[C@@H](O)[C@H]1F [Example 9]

>  <qualifierSymbol>
=

>  <% Increase in life-span (T/C, %)>
274

$$$$
>  <compound>
COc1cccc2c1C(=O)c1c(O)c3c(c(O)c1C2=O)C[C@@](O)(C(C)=O)C[C@@H]3O[C@H]1C[C@H](N)[C@H](O)[C@H](C)O1 [Daunomycin, reference compound]

>  <qualifierSymbol>
=

>  <% Increase in life-span (T/C, %)>
133

$$$$
>  <compound>
COc1cccc2c1C(=O)c1c(O)c3c(c(O)c1C2=O)C[C@@](O)(C(=O)CO)C[C@@H]3O[C@@H]1O[C@@H](C)[C@H](O)[C@@H](O)[C@H]1F [Example 3]

>  <qualifierSymbol>
>

>  <% Increase in life-span (T/C, %)>
440

$$$$
>  <compound>
COc1cccc2c1C(=O)c1c(O)c3c(c(O)c1C2=O)C[C@@](O)(C(=O)CO)C[C@@H]3O[C@@H]1O[C@@H](C)[C@@H](O)[C@@H](O)[C@H]1F [reference compound]

>  <qualifierSymbol>
=

>  <% Increase in life-span (T/C, %)>
182

$$$$
>  <compound>
COc1cccc2c1C(=O)c1c(O)c3c(c(O)c1C2=O)C[C@@](O)(C(C)=O)C[C@@H]3O[C@@H]1O[C@@H](C)[C@@H](O)[C@@H](O)[C@H]1F [reference compound]

>  <qualifierSymbol>
=

>  <% Increase in life-span (T/C, %)>
105

$$$$
>  <compound>
COc1cccc2c1C(=O)c1c(O)c3c(c(O)c1C2=O)C[C@@](O)(C(C)=O)C[C@@H]3O[C@@H]1O[C@@H](C)[C@H](O)[C@@H](O)[C@H]1F [Example 1]

>  <qualifierSymbol>
=

>  <% Increase in life-span (T/C, %)>
123

$$$$

---

# System: Leukemia L-1210 cells
# experimentSummary: Test 1: antitumor activity against leukemia induced in CDF1 mice by Leukemia L-1210 cells (life-span increase)
# Format: in vivo
# runParameters: Dose 5 mg/kg/day, intraperitoneally once per day for 9 consecutive days, observation 60 days
Listing of entries alongside the reported % Increase in life-span (T/C, %).
measuredQuantity: % Increase in life-span (T/C, %)

>  <molecule>
C[C@@H]1O[C@@H](O[C@H]2C[C@](O)(C(=O)CO)Cc3c(O)c4c(c(O)c32)C(=O)c2ccccc2C4=O)[C@H](F)[C@H](O)[C@H]1O [Example 4]

>  <testTarget>
Leukemia L-1210 cells

>  <recordedMeasurement>
22%

$$$$
>  <molecule>
COc1cccc2c1C(=O)c1c(O)c3c(c(O)c1C2=O)C[C@@](O)(C(=O)CO)C[C@@H]3O[C@H]1C[C@H](N)[C@H](O)[C@H](C)O1 [Adriamycin, reference compound]

>  <testTarget>
Leukemia L-1210 cells

>  <recordedMeasurement>
191%

$$$$
>  <molecule>
COc1cccc2c1C(=O)c1c(O)c3c(c(O)c1C2=O)C[C@@](O)(C(=O)CO)C[C@@H]3O[C@@H]1O[C@@H](C)[C@H](O)[C@@H](O)[C@H]1F [Example 3]

>  <testTarget>
Leukemia L-1210 cells

>  <recordedMeasurement>
211%

$$$$

---

# experimentSummary: Solubility in phosphate buffer solution of pH 7.4 at room temperature
# Assay type: physicochemical
# runParameters: aqueous buffer; compounds (Ic); phosphate buffer solution of pH 7.4 (0.05 M KH2PO4-NaOH), room temperature; read-out: Solubility

>  <testSmiles>
COc1cccc2c1C(=O)c1c(O)c3c(c(O)c1C2=O)C[C@@](O)(C(=O)COC(=O)CCCCC(=O)O)C[C@@H]3O[C@@H]1O[C@@H](C)[C@H](O)[C@@H](O)[C@H]1F

>  <solubility>
32 mg/mL

$$$$
>  <testSmiles>
COc1cccc2c1C(=O)c1c(O)c3c(c(O)c1C2=O)C[C@@](O)(C(=O)COC(=O)CCCCCCC(=O)O)C[C@@H]3O[C@@H]1O[C@@H](C)[C@H](O)[C@@H](O)[C@H]1F

>  <solubility>
30 mg/mL

$$$$
>  <testSmiles>
COc1cccc2c1C(=O)c1c(O)c3c(c(O)c1C2=O)C[C@@](O)(C(=O)COC(=O)CCC(=O)O)C[C@@H]3O[C@@H]1O[C@@H](C)[C@H](O)[C@@H](O)[C@H]1F

>  <solubility>
25 mg/mL

$$$$
>  <testSmiles>
COc1cccc2c1C(=O)c1c(O)c3c(c(O)c1C2=O)C[C@@](O)(C(=O)COC(=O)CCCC(=O)O)C[C@@H]3O[C@@H]1O[C@@H](C)[C@H](O)[C@@H](O)[C@H]1F

>  <solubility>
28 mg/mL

$$$$
>  <testSmiles>
C[C@@H]1O[C@@H](O[C@H]2C[C@](O)(C(=O)COC(=O)CCCCCC(=O)O)Cc3c(O)c4c(c(O)c32)C(=O)c2ccccc2C4=O)[C@H](F)[C@H](O)[C@H]1O

>  <solubility>
< 1 mg/mL

$$$$
>  <testSmiles>
COc1cccc2c1C(=O)c1c(O)c3c(c(O)c1C2=O)C[C@@](O)(C(=O)COC(=O)CCCCCC(=O)O)C[C@@H]3O[C@@H]1O[C@@H](C)[C@H](O)[C@@H](O)[C@H]1F

>  <solubility>
32 mg/mL

$$$$
